Test system: NCI-H719 tumor spheroids, viability
Experiment: Anticancer human tumor NCI-H719 cell line growth inhibition;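 further: spheroids exposed to compounds for seven days; percent viability relative to DMSO vehicle control as 100%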
Conditions: second compound 31.6 µM; first compound 0.3 µM; stronger effect = lower value; spheroids with HUVEC and MSC
Metric: viability, T/C (%)
Give just the number in %; leave the unit off.

Molecule	Value
O=C(c1cc(Cc2n[nH]c(=O)c3ccccc23)ccc1F)N1CCN(C(=O)C2CC2)CC1 + Cn1nnc2c(C(N)=O)ncn2c1=O	53.3

**Query** Param readout = viability, T/C; param system = NCI-H719 tumor spheroids, viability; param query = CNCc1ccc(-c2cc(-c3nc(-c4ccc(S(=O)(=O)C(C)C)cc4)cnc3N)on2)cc1 + Cn1nnc2c(C(N)=O)ncn2c1=O ; response: value
**Result** 15.7

**Query** Param readout = viability, T/C; param system = NCI-H719 tumor spheroids, viability; param query = Cc1sc2c(c1C)C(c1ccc(Cl)cc1)=NC(CC(=O)Nc1ccc(O)cc1)c1nnc(C)n1-2 (centres undefined) + Cn1nnc2c(C(N)=O)ncn2c1=O ; response: value
**Result** 14.3

**Query** Param readout = viability, T/C; param system = NCI-H719 tumor spheroids, viability; param query = Cn1ncnc1[C@H]1c2n[nH]c(=O)c3cc(F)cc(c23)N[C@@H]1c1ccc(F)cc1 + Cn1nnc2c(C(N)=O)ncn2c1=O ; response: value
**Result** 7.06

---

System: NCI-H719 tumor spheroids, viability
Assay: Anticancer human tumor NCI-H719 cell line growth inhibition;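 further: spheroids exposed to compounds for seven days; percent viability relative to DMSO vehicle control as 100%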
Conditions: second compound 3.16 µM; first compound 3.16 µM; stronger effect = lower value; spheroids with HUVEC and MSC
// NB: equality with 90% counts as FALSE; only viability, T/C strictly below is TRUE

# example entries with known answers
Compound	Assigned label
COc1ccc([C@@H](O)c2cc(-c3ncnc4cc(N5CCOCC5)ccc34)c(F)cc2Cl)nn1 + Cn1nnc2c(C(N)=O)ncn2c1=O	TRUE
[2H]c1nc(C)nc([2H])c1-c1cc(NC[C@@H](C)c2cccc3c(C(=O)NC)ccnc23)ncn1 + Cn1nnc2c(C(N)=O)ncn2c1=O	FALSE
COc1cc(C)[nH]c(=O)c1CN1CCc2c(Cl)cc(C(OC)C3COC3)c(Cl)c2C1=O (stereo unspecified) + Cn1nnc2c(C(N)=O)ncn2c1=O	FALSE
CC(C)n1c(=O)n(C)c2cnc3cc(F)c(-c4ccc(OCCCN5CCCCC5)nc4)cc3c21 + Cn1nnc2c(C(N)=O)ncn2c1=O	FALSE

Could you now look at the following compound, please?
**Query** Item CC1COCCN1c1cc(-c2ccnn2C)c2ccnc(-c3ccn[nH]3)c2n1 (stereo unspecified) + Cn1nnc2c(C(N)=O)ncn2c1=O : viability, T/C beneath 90%, strictly?
**Result** TRUE

---

# viability, T/C values compiled below
Tested on: NCI-H719 tumor spheroids, viability
Assay: Anticancer human tumor NCI-H719 cell line growth inhibition;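 further: spheroids exposed to compounds for seven days; percent viability relative to DMSO vehicle control as 100%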
Settings: second compound 0.03 µM; first compound 0.1 µM; stronger effect = lower value; spheroids with HUVEC and MSC
Give just the number in %; leave the unit off.

Compound	Experimental system	Value
COc1ccc([C@@H](O)c2cc(-c3ncnc4cc(N5CCOCC5)ccc34)c(F)cc2Cl)nn1 + CC[C@@]1(O)C(=O)OCc2c1cc1n(c2=O)Cc2cc3c(CN(C)C)c(O)ccc3nc2-1	NCI-H719 tumor spheroids, viability	6.19

**Query** Data request, read-out viability, T/C, for Cc1cc(C)c(CNC(=O)c2cc(-c3ccc(CN4CCOCC4)cc3)cc3c2cnn3C2CCCC2)c(=O)[nH]1 + CC[C@@]1(O)C(=O)OCc2c1cc1n(c2=O)Cc2cc3c(CN(C)C)c(O)ccc3nc2-1
**Result** 5.75

**Query** Data request, read-out viability, T/C, for COc1cc(C)[nH]c(=O)c1CN1CCc2c(Cl)cc(C(OC)C3COC3)c(Cl)c2C1=O (stereo unspecified) + CC[C@@]1(O)C(=O)OCc2c1cc1n(c2=O)Cc2cc3c(CN(C)C)c(O)ccc3nc2-1
**Result** 8.47

**Query** Data request, read-out viability, T/C, for CC(C)n1c(=O)n(C)c2cnc3cc(F)c(-c4ccc(OCCCN5CCCCC5)nc4)cc3c21 + CC[C@@]1(O)C(=O)OCc2c1cc1n(c2=O)Cc2cc3c(CN(C)C)c(O)ccc3nc2-1
**Result** 6.04

**Query** Data request, read-out viability, T/C, for CC1COCCN1c1cc(-c2ccnn2C)c2ccnc(-c3ccn[nH]3)c2n1 (stereo unspecified) + CC[C@@]1(O)C(=O)OCc2c1cc1n(c2=O)Cc2cc3c(CN(C)C)c(O)ccc3nc2-1
**Result** 5.35

**Query** Data request, read-out viability, T/C, for [2H]c1nc(C)nc([2H])c1-c1cc(NC[C@@H](C)c2cccc3c(C(=O)NC)ccnc23)ncn1 + CC[C@@]1(O)C(=O)OCc2c1cc1n(c2=O)Cc2cc3c(CN(C)C)c(O)ccc3nc2-1
**Result** 6.65
